# Tested on: U2OS
# assay procedure: Multiplex assay against U2OS
# Format: toxicity, cell-based
# condition details: human, 24 h, 1 µM, compound concentration 1 uM, replicate 1
Non-standard residues stand in square brackets, D forms with d. Residues, ends and D or L forms follow the SMILES beside them.
measured quantity: Population Pyknosed Nuclei (%)

# count of solved cases: 8
| molecule | Population Pyknosed Nuclei (%) |
| --- | --- |
| COCCCN1CCC(NC(=O)c2cc(Cl)c(N)c3c2OCC3)CC1 [PRUCALOPRIDE] | 8% |
| Cc1cc(-c2ccc3c(c2)CC[C@H]3N2CC3(CCN(C(=O)Cc4cn5cc(C)sc5n4)CC3)C2)ncn1 | 8% |
| Cc1c(Cc2ccc3ccccc3n2)c2cc(F)ccc2n1CC(=O)O | 7% |
| OCCCNc1cc(-c2ccnc(Nc3cccc(Cl)c3)n2)ccn1 | 13% |
| CN1C[C@H](C(=O)N[C@]2(C)O[C@@]3(O)[C@@H]4CCCN4C(=O)[C@H](Cc4ccccc4)N3C2=O)C[C@@H]2c3cccc4[nH]cc(c34)C[C@H]21.CS(=O)(=O)O [DIHYDROERGOTAMINE MESYLATE] | 9% |
| CC(C)C[C@@H]1NC(=O)[C@@H](C(C)C)NC(=O)[C@@H]2CCCN2C(=O)[C@@H](CC(=O)O)NC(=O)[C@@H](Cc2c[nH]c3ccccc23)NC1=O [BQ-123] (cyclo(L[dW][dD]P[dV])) | 8% |
| COc1cc(C(=O)N2CC[C@@H](O)[C@@H](N)C2)cc2nc(-c3cc4ccccc4n3CC3CC3)n(C)c12.Cl | 17% |
| Nc1nc(CC(=O)Nc2ccc(CCNC[C@H](O)c3ccccc3)cc2)cs1 | 8% |

Qu. What does the record list as Population Pyknosed Nuclei (%) for CC(C)(C)c1ccc(CSc2cnn(C(C)(C)C)c(=O)c2Cl)cc1 ?
Ans. 13%

Qu. Would you mind telling me what Population Pyknosed Nuclei (%) value was observed for COc1cc2nc(N3CCN(C(=O)c4ccco4)CC3)nc(N)c2cc1OC.Cl [PRAZOSIN HYDROCHLORIDE] ?
Ans. 7%

Qu. What Population Pyknosed Nuclei (%) value was documented for this molecule, COc1cc(OC2CCN(C(C)=O)CC2)ccc1C(=O)N1CCC(N2C(=O)OCc3ccccc32)CC1 ?
Ans. 8%

Qu. What does the record list as Population Pyknosed Nuclei (%) for CCCCCCNC(=O)Nc1ccc(S(=O)(=O)Nc2ccc(CCNC[C@H](O)COc3ccc(O)cc3)cc2)cc1 ?
Ans. 11%

Qu. State the recorded Population Pyknosed Nuclei (%) for this entry: Cc1cc(O)c(-c2ccc([C@@H](C)CN(C)C)cc2)c2c1[nH]c(=O)c1sccc12
Ans. 21%

Qu. Name the reported Population Pyknosed Nuclei (%) value associated with the molecule COCCn1c(C)c(C)s/c1=N\C(=O)C1C(C)(C)C1(C)C
Ans. 6%

Qu. Look up Population Pyknosed Nuclei (%): O=C(O)CCC/C=C\CC1C(O)CC(O)C1/C=C/C(O)COc1cccc(Cl)c1 (stereo unspecified)
Ans. 11%

Qu. Fill in: Population Pyknosed Nuclei (%) of C=CCN1C[C@H](C(=O)N(CCCN(C)C)C(=O)NCC)C[C@@H]2c3cccc4[nH]cc(c34)C[C@H]21 is ___
Ans. 10%
